test system: HT29; assay: Reverse Phase Protein Analysis (RPPA); assay type: cell-based; settings: % change from DMSO (matched cell line)
Measured parameter: Avg (MAK1 S360) (%)
Kindly answer with a numeric value in %, unit omitted.

Please review the following examples before continuing.
CC(C)Nc1cc(-c2c[nH]c(C(=O)N[C@H](CO)c3cccc(Cl)c3)c2)c(Cl)cn1: 1.49
Cn1nccc1Nc1nccc(-c2ccn([C@H](CO)c3ccc(Cl)c(F)c3)c(=O)c2)n1: −0.04
Cc1cnc(Nc2ccc(F)cc2Cl)nc1-c1c[nH]c(C(=O)N[C@H](CO)c2cccc(Cl)c2)c1 [Vx-11e]: 5.64

Turning now to a further compound:
In: I have this compound here, O=C(Nc1ccc2[nH]nc(-c3ccncc3)c2c1)[C@@H]1CCN(CC(=O)N2CCN(c3ccc(-c4ncccn4)cc3)CC2)C1 , and I need its recorded Avg (MAK1 S360).
Out: 1.25

====

tested on: HCT116; assay: Reverse Phase Protein Analysis (RPPA); format: cell-based, human; details: % change from DMSO (matched cell line)
Measured parameter: Avg (4ebp1 T70) (%)
Kindly answer with a numeric value in %, unit omitted.

In: I have this molecule here, Cc1cnc(Nc2ccc(F)cc2Cl)nc1-c1c[nH]c(C(=O)N[C@H](CO)c2cccc(Cl)c2)c1 [Vx-11e] , and I need its recorded Avg (4ebp1 T70).
Out: 10.35

====

molecular target: CDK1/cyclinB (Homo sapiens, UniProt P06493); assay: Kinase counter-screen, Ki; settings: apparent Ki
Sequence (P06493 whole entry, species assumed): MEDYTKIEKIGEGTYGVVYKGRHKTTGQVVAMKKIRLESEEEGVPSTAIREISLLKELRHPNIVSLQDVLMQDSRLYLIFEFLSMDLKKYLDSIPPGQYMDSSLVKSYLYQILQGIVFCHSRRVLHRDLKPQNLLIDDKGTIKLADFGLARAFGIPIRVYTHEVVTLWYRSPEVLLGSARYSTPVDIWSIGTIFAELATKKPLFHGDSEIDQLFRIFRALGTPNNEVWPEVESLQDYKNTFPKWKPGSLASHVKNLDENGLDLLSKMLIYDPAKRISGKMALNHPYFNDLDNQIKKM
Sequence (P14635 whole entry partner, species assumed): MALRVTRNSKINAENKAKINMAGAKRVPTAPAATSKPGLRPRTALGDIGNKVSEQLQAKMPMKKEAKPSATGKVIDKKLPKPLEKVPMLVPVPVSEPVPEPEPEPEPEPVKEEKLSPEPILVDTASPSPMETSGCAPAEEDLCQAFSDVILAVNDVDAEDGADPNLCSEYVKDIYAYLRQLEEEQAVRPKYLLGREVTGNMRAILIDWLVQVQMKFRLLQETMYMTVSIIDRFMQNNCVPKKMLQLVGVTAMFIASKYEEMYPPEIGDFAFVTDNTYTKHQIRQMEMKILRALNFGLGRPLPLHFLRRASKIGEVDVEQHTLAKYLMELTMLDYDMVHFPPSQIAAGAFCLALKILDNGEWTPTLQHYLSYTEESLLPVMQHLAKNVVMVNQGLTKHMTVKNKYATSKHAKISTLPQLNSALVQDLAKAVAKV
Measured parameter: Ki (nM)
Kindly answer with a numeric value in nM, unit omitted.

In: Field: Ki (CDK1/cyclinB (Homo sapiens, UniProt P06493)). Entry: CC(C)Nc1cc(-c2c[nH]c(C(=O)N[C@H](CO)c3cccc(Cl)c3)c2)c(Cl)cn1 [BVD-523]
Out: 70

====

The following compounds are shown together with reported Avg (bad S112) values.
system: MIAPaCa-2; test: Reverse Phase Protein Analysis (RPPA); assay type: cell-based; settings: MIAPaca2; % change from DMSO (matched cell line)
Kindly answer with a numeric value in %, unit omitted.

Please review the following examples before continuing.
O=C(Nc1ccc2[nH]nc(-c3ccncc3)c2c1)[C@@H]1CCN(CC(=O)N2CCN(c3ccc(-c4ncccn4)cc3)CC2)C1: −33.07
CC(C)Nc1cc(-c2c[nH]c(C(=O)N[C@H](CO)c3cccc(Cl)c3)c2)c(Cl)cn1: −30.29
Cc1cnc(Nc2ccc(F)cc2Cl)nc1-c1c[nH]c(C(=O)N[C@H](CO)c2cccc(Cl)c2)c1 [Vx-11e]: −20.85

Turning now to a further compound:
In: I have this compound here, Cn1nccc1Nc1nccc(-c2ccn([C@H](CO)c3ccc(Cl)c(F)c3)c(=O)c2)n1 , and I need its recorded Avg (bad S112).
Out: −10.08

====

experiment: Phase I study: pharmacokinetic analysis; format: in vivo, human; settings: human, plasma, oral, 900 mg, 900 mg BID; Day 15; read-out: AUC0-12 ± SD
Measured parameter: AUC(0-t)
Param answer (str): number followed by unit.

In: I have this molecule here, CC(C)Nc1cc(-c2c[nH]c(C(=O)N[C@H](CO)c3cccc(Cl)c3)c2)c(Cl)cn1 , and I need its recorded AUC(0-t).
Out: 15.9 µg·h/mL

====

tested on: HCT116; experiment: Reverse Phase Protein Analysis (RPPA); type: cell-based, human; details: % change from DMSO (matched cell line)
Measured parameter: Avg (Bcl2 S70) (%)
Kindly answer with a numeric value in %, unit omitted.

O=C(Nc1ccc2[nH]nc(-c3ccncc3)c2c1)[C@@H]1CCN(CC(=O)N2CCN(c3ccc(-c4ncccn4)cc3)CC2)C1: −18.34
CC(C)Nc1cc(-c2c[nH]c(C(=O)N[C@H](CO)c3cccc(Cl)c3)c2)c(Cl)cn1: −8.23
Cn1nccc1Nc1nccc(-c2ccn([C@H](CO)c3ccc(Cl)c(F)c3)c(=O)c2)n1: −12.53

Turning now to a further compound:
In: I have this compound here, Cc1cnc(Nc2ccc(F)cc2Cl)nc1-c1c[nH]c(C(=O)N[C@H](CO)c2cccc(Cl)c2)c1 [Vx-11e] , and I need its recorded Avg (Bcl2 S70).
Out: −17.79
